MEASUREMENT_TARGET: PDK1 (Homo sapiens)
Sequence (O15530 51-556): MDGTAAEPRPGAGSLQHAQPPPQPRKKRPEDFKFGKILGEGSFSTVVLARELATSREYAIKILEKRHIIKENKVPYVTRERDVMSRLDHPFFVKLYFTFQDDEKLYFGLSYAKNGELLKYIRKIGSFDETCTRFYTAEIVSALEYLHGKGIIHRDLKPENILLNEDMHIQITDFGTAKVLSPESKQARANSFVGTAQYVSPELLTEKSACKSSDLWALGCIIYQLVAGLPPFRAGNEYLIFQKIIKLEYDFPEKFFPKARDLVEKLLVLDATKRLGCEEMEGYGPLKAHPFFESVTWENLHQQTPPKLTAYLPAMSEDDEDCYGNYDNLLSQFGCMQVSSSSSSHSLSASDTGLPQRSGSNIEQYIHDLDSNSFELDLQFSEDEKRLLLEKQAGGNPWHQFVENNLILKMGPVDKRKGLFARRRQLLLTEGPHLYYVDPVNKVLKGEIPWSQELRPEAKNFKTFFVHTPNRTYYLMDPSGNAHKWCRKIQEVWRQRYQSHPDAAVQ
ENDPOINT_LABEL: IC50

ENTRY_SMILES: Cn1cc(-c2c(C(F)(F)F)cnc3[nH]c(-c4cccc(C(=O)N5CCOCC5)c4)cc23)cn1
IC50: 0.3 to 3 µM

Q: Query (molecule): `Cn1cc(-c2c(C(F)(F)F)cnc3[nH]c(-c4cccc(N5CCOCC5)c4)cc23)cn1` ; field requested: IC50
A: 0.3 to 3 µM

Q: Query (molecule): `FC(F)(F)c1cnc2[nH]c(-c3ccc(N4CCOCC4)cc3)cc2c1-c1cn[nH]c1` ; field requested: IC50
A: 3 to 50 µM

Q: Query (molecule): `Cn1cc(-c2c(C(F)(F)F)cnc3[nH]c(-c4ccc(C(=O)N5CCOCC5)cc4)cc23)cn1` ; field requested: IC50
A: < 0.3 µM

Q: Query (molecule): `Cn1cc(-c2c(C(F)(F)F)cnc3[nH]c(-c4ccc(F)cc4)cc23)cn1` ; field requested: IC50
A: 0.3 to 3 µM

Q: Query (molecule): `O=c1ccc(-c2c(C(F)(F)F)cnc3[nH]c(-c4ccc(N5CCOCC5)cc4)cc23)c[nH]1` ; field requested: IC50
A: 0.3 to 3 µM

Hey, just so you know, these numbers are from patent US9249140B2.
